# system_tested: human cloned CHRM5 receptor (Homo sapiens, UniProt P08912)
# Construct: expressed in transfected cells; host or cells: CHO (M5_CHO)
# Sequence (P08912 1-532): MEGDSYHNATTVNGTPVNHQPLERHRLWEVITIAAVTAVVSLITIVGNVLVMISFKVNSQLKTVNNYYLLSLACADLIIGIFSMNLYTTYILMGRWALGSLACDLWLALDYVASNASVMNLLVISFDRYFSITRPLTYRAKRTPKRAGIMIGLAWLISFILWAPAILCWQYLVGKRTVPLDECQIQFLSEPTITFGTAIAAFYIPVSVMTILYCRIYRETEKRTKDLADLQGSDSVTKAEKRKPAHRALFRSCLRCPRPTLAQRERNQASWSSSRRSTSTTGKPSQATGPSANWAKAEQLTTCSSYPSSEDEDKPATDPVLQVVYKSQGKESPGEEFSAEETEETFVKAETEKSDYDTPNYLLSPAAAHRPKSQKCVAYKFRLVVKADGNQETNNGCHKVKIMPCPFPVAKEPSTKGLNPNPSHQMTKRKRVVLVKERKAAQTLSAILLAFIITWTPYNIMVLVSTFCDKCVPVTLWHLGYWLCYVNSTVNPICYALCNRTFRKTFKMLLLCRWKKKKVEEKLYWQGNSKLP
# assay_explanation: CHRM5 Ca++ Flux Assay (M5_CHO cells, agonist mode)
# Assay type: cell-based
# measurement_conditions: agonist mode, geometric mean if tested more than once, read-out: M5 FDSS EC50
pEC50: −log10 of the molar value.
experimental_endpoint: pEC50

# input Given the compound Cc1cc(COc2ccc(F)cc2C2CCN([C@@H]3COC4(C3)CN(c3nnco3)C4)CC2)on1 [Example 2G] , what is its reported pEC50?
# output < 4.60

Hi team, please reply with pEC50 for each item in this list.
1. Cc1nnc(COc2ccc(F)cc2C2CCN([C@@H]3COC4(C3)CN(c3nnco3)C4)CC2)o1 [Example 2F]
2. COCCOc1ccc(F)cc1C1CCN([C@@H]2COC3(C2)CN(c2ncco2)C3)CC1 [Example 4L]
3. Fc1ccc(OCC2(F)COC2)c(C2CCN([C@@H]3COC4(C3)CN(c3nnco3)C4)CC2)c1 [Example 2J]
4. Fc1cc(OC2COC2)c(C2CCN([C@@H]3COC4(C3)CN(c3nnco3)C4)CC2)cc1F [Example 2FF]
5. Fc1ccc(OC2COC2)c(C2CCN([C@@H]3COC4(C3)CN(c3ncon3)C4)CC2)c1 [Example 6B]
6. CC1(COc2ccc(F)cc2C2CCN([C@@H]3COC4(C3)CN(c3nncs3)C4)CC2)COC1 [Example 2B]
7. COC(C)(C)CCOc1ccc(F)cc1C1CCN([C@@H]2COC3(C2)CN(c2nncs2)C3)CC1 [Example 5N]

# output
[5.44, "< 4.60", "< 4.60", "< 4.60", "< 4.60", "< 4.60", 4.90]

----------
# system_tested: human cloned CHRM4 receptor (Homo sapiens)
# Sequence (P08173 whole entry): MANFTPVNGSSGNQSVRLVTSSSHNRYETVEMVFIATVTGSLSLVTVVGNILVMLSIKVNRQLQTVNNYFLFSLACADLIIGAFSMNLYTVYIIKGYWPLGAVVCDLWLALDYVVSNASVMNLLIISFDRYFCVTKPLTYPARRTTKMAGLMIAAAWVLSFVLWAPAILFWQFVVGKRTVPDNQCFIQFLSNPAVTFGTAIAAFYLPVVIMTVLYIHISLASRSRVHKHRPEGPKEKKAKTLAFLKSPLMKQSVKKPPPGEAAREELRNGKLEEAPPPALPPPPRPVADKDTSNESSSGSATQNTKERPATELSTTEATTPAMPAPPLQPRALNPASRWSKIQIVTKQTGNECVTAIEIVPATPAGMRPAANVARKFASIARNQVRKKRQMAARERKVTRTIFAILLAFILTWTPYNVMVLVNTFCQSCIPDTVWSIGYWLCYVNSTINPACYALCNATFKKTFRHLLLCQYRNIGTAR
# assay_explanation: CHRM4 Ca++ Flux Assay (M4_CHO cells, agonist mode)
# measurement_conditions: geometric mean if tested more than once, read-out: M4 FDSS EC50
Kindly state pEC50 for each of the entries shown.
Answers are plain numbers, as −log10 of the molar value.

# input Can you share its pEC50? I mean this compound: CC1(C)C[C@@H](Oc2ccc(F)cc2C2CCN([C@@H]3COC4(C3)CN(c3nnco3)C4)CC2)CO1 (single isomer, unassigned) [Example 2O]
# output 7.29

# input For the compound shown here, Fc1ccc(OC2COC2)c(C2CCN([C@@H]3COC4(C3)CN(c3nncs3)C4)CC2)c1 [Example 5G] , give the reported pEC50.
# output 7.89

We now examine a further compound.
# input For Fc1ccc(OC2COCOC2)c(C2CCN([C@@H]3COC4(C3)CN(c3nnco3)C4)CC2)c1 [Example 1M] , what is its reported pEC50?
# output 7.03

Just for reference, patent US11485742B2 is where these values come from.
